- ASSAY DETAILS: Single ascending oral dose study in healthy volunteers: plasma pharmacokinetics
- Type: in vivo, human
- CONDITION DETAILS: human, plasma, oral, 100 mg; read-out: Cmax, Geometric Mean
MEASURED PROPERTY: Cmax (ng/mL)
The figure you give is taken to be in ng/mL; do not add the unit.

Any idea what its Cmax is? The molecule is Cn1cc(S(=O)(=O)[C@@](C)(F)C2CCN(C(=O)Nc3ccon3)CC2)c(C(F)F)n1 1000

----------
- ASSAY DETAILS: Food effect cross-over study, 200 mg (25 mg tablets), healthy volunteers: plasma pharmacokinetics
- Assay type: in vivo, human
- CONDITION DETAILS: human, plasma, oral, 48 hours postdose, Fed, read-out: Plasma concentration, Median
MEASURED PROPERTY: concentration at 48 h (ng/mL)
Report only the number, with the unit ng/mL understood.

I am curious: what concentration at 48 h value has been reported for Cn1cc(S(=O)(=O)[C@@](C)(F)C2CCN(C(=O)Nc3ccon3)CC2)c(C(F)F)n1 ? 549

----------
- ASSAY DETAILS: Single ascending oral dose study in healthy volunteers: plasma pharmacokinetics
- Format: in vivo, human
- CONDITION DETAILS: human, plasma, oral, 10 mg, 48 Hours Postdose; 10 mg; read-out: Plasma concentration, Mean
MEASURED PROPERTY: concentration at 48 h (ng/mL)
Kindly answer with a numeric value in ng/mL, unit omitted.

Give its concentration at 48 h value. Item: Cn1cc(S(=O)(=O)[C@@](C)(F)C2CCN(C(=O)Nc3ccon3)CC2)c(C(F)F)n1 16.4

----------
- ASSAY DETAILS: Food effect cross-over study, 200 mg (25 mg tablets), healthy volunteers: plasma pharmacokinetics
- Format: in vivo, human
- CONDITION DETAILS: human, plasma, po, single 200 mg oral dose, Fed (N = 10), read-out: Cmax, Mean
MEASURED PROPERTY: Cmax (ng/mL)
// units = ng/mL; emit number, no label

For the compound shown here, Cn1cc(S(=O)(=O)[C@@](C)(F)C2CCN(C(=O)Nc3ccon3)CC2)c(C(F)F)n1 [Compound I] , give the reported Cmax. 3680

----------
- ASSAY DETAILS: Food effect cross-over study, 200 mg (25 mg tablets), healthy volunteers: plasma pharmacokinetics
- Assay type: in vivo, human
- CONDITION DETAILS: human, plasma, oral, 1 hour postdose, Fed, read-out: Plasma concentration, Geometric Mean
MEASURED PROPERTY: concentration at 1 h (ng/mL)
Just the number please, in ng/mL, no unit attached.

Find the recorded concentration at 1 h belonging to Cn1cc(S(=O)(=O)[C@@](C)(F)C2CCN(C(=O)Nc3ccon3)CC2)c(C(F)F)n1 [Compound I] and report it. 916

----------
- ASSAY DETAILS: Single ascending oral dose study in healthy volunteers: plasma pharmacokinetics
- Assay type: in vivo, human
- CONDITION DETAILS: human, plasma, oral, 175 mg; read-out: Cmax, Geometric Mean
MEASURED PROPERTY: Cmax (ng/mL)
Record the value in ng/mL, omitting the unit from your answer.

Cmax for Cn1cc(S(=O)(=O)[C@@](C)(F)C2CCN(C(=O)Nc3ccon3)CC2)c(C(F)F)n1 [Compound I] ? 1300

----------
- ASSAY DETAILS: Food effect cross-over study, 200 mg (25 mg tablets), healthy volunteers: plasma pharmacokinetics
- Format: in vivo, human
- CONDITION DETAILS: human, plasma, po, single 200 mg oral dose, Fasted (N = 10), read-out: AUCinf, Mean
- Procedure: This example describes a clinical study for establishing, in healthy volunteers, the effect of a high fat, high caloric meal on the PK profile of Compound I, as compared to administration of the drug in the fasted state. The study also was intended to determine the safety and tolerability after a single oral dose of Compound I in the fed and fasted state in healthy volunteers. […] Plasma drug concentrations were measured as described in Example 1 above. […]
MEASURED PROPERTY: AUC(0-inf) (ng·h/mL)
Just the number please, in ng·h/mL, no unit attached.

// AUC(0-inf) lookup, key: Cn1cc(S(=O)(=O)[C@@](C)(F)C2CCN(C(=O)Nc3ccon3)CC2)c(C(F)F)n1 62600

----------
- ASSAY DETAILS: Single ascending oral dose study in healthy volunteers: plasma pharmacokinetics
- Type: in vivo, human
- CONDITION DETAILS: human, plasma, oral, 3 mg; read-out: Vz/F, Mean
MEASURED PROPERTY: Vd/F (L)
Reply with just the number (in L).

Fill blank: measured Vd/F of the compound Cn1cc(S(=O)(=O)[C@@](C)(F)C2CCN(C(=O)Nc3ccon3)CC2)c(C(F)F)n1 [Compound I] is ____. 66.9

----------
- ASSAY DETAILS: Single ascending oral dose study in healthy volunteers: plasma pharmacokinetics
- Type: in vivo, human
- CONDITION DETAILS: human, plasma, oral, 350 mg; read-out: Vz/F, Median
MEASURED PROPERTY: Vd/F (L)
Give just the number in L; leave the unit off.

Fill blank: measured Vd/F of the compound Cn1cc(S(=O)(=O)[C@@](C)(F)C2CCN(C(=O)Nc3ccon3)CC2)c(C(F)F)n1 [Compound I] is ____. 98.4

----------
- ASSAY DETAILS: Food effect cross-over study, 200 mg (25 mg tablets), healthy volunteers: plasma pharmacokinetics
- Format: in vivo, human
- CONDITION DETAILS: human, plasma, oral, 36 hours postdose, Fasted, read-out: Plasma concentration, Mean
MEASURED PROPERTY: concentration at 36 h (ng/mL)
Report the figure in ng/mL without appending any unit label.

Quick one: concentration at 36 h for Cn1cc(S(=O)(=O)[C@@](C)(F)C2CCN(C(=O)Nc3ccon3)CC2)c(C(F)F)n1 [Compound I] ? 578

----------
- ASSAY DETAILS: Food effect cross-over study, 200 mg (25 mg tablets), healthy volunteers: plasma pharmacokinetics
- Assay type: in vivo, human
- CONDITION DETAILS: human, plasma, oral, 4 hours postdose, Fasted, read-out: Plasma concentration, Median
MEASURED PROPERTY: concentration at 4 h (ng/mL)
A number alone suffices; assume ng/mL.

Reported concentration at 4 h for Cn1cc(S(=O)(=O)[C@@](C)(F)C2CCN(C(=O)Nc3ccon3)CC2)c(C(F)F)n1 : what is it? 2280

----------
- ASSAY DETAILS: Food effect cross-over study, 200 mg (25 mg tablets), healthy volunteers: plasma pharmacokinetics
- Type: in vivo, human
- CONDITION DETAILS: human, plasma, oral, 48 hours postdose, Fasted, read-out: Plasma concentration, Median
- Method: This example describes a clinical study for establishing, in healthy volunteers, the effect of a high fat, high caloric meal on the PK profile of Compound I, as compared to administration of the drug in the fasted state. The study also was intended to determine the safety and tolerability after a single oral dose of Compound I in the fed and fasted state in healthy volunteers. […] Plasma drug concentrations were measured as described in Example 1 above. […]
MEASURED PROPERTY: concentration at 48 h (ng/mL)
Note: unit ng/mL is implicit; provide only the numeric part.

Give its concentration at 48 h value. Item: Cn1cc(S(=O)(=O)[C@@](C)(F)C2CCN(C(=O)Nc3ccon3)CC2)c(C(F)F)n1 346

----------
- ASSAY DETAILS: Single ascending oral dose study in healthy volunteers: plasma pharmacokinetics
- Format: in vivo, human
- CONDITION DETAILS: human, plasma, oral, 3 mg; read-out: Half-Life Lambda Z, Geometric Mean (converted)
MEASURED PROPERTY: half-life (h)
Expressed in h, but write only the number.

Which half-life reading was recorded for the compound Cn1cc(S(=O)(=O)[C@@](C)(F)C2CCN(C(=O)Nc3ccon3)CC2)c(C(F)F)n1 [Compound I] ? 11.1

----------
- ASSAY DETAILS: HFrEF study Part 2 (MAD Cohorts A-D): plasma pharmacokinetics
- Assay type: in vivo, human
- CONDITION DETAILS: human, plasma, oral, 50 mg, MAD Cohort B, 50 mg BID (with food); Mean; read-out: Cmax, SS
MEASURED PROPERTY: Cmax (ng/mL)
Only the number, expressed in ng/mL, is required.

What does the record list as Cmax for Cn1cc(S(=O)(=O)[C@@](C)(F)C2CCN(C(=O)Nc3ccon3)CC2)c(C(F)F)n1 [Compound I] ? 2770

----------
- ASSAY DETAILS: Single ascending oral dose study in healthy volunteers: plasma pharmacokinetics
- Type: in vivo, human
- CONDITION DETAILS: human, plasma, oral, 100 mg; read-out: Vz/F, Geometric Mean
MEASURED PROPERTY: Vd/F (L)
Supply the numeric figure in L, leaving out any unit text.

// Vd/F lookup, key: Cn1cc(S(=O)(=O)[C@@](C)(F)C2CCN(C(=O)Nc3ccon3)CC2)c(C(F)F)n1 74.9
